Each recorded value in this set is attributed to the supplement of paper PMC4862054.

Reported normalised response values are given for each entry in this list.
tested on: Hs578T; test: normalised response (% of control), CellTiter-Glo; higher = more viable cells (100 = DMSO, 0 = benzethonium chloride kill control); details: incubation time: 72 h
Respond with the bare value in %.

Here is how some compounds turned out for normalised response.
COC1=C2C[C@@H](C)C[C@H](OC)[C@H](O)[C@@H](C)/C=C(\C)[C@H](OC(N)=O)[C@@H](OC)/C=C\C=C(/C)C(=O)NC(=CC1=O)C2=O [Geldanamycin] (10 nM)	108
COC1=CC(c2cc3ccccc3[nH]2)=N/C1=C\c1[nH]c(C)cc1C [Obatoclax] (10 nM)	99.4
CCCC(CCC)C(=O)O [Valproic acid] (100000 nM)	104
O=c1[nH]cc(F)c(=O)[nH]1 [Fluorouracil] (10 nM)	110
Nc1nccc(-c2c(-c3ccc(F)cc3)ncn2C2CCCCC2)n1 (1000 nM)	104
COc1ncc(-c2ccc3nccc(-c4ccnnc4)c3c2)cc1NS(=O)(=O)c1ccc(F)cc1F (0.1 nM)	103

# input Give Hs578T normalised response for COc1c(C)cnc(Cn2cnc3c(Cl)nc(N)nc32)c1C [BIIB021] (1 nM)
# output 106

# input Give Hs578T normalised response for O=c1[nH]c(=O)n([C@H]2C[C@H](O)[C@@H](CO)O2)cc1F [Floxuridine] (1 nM)
# output 103

###

Reported normalised viability values are given for each entry in this list.
system: Hs578T; assay: normalised viability (% of control), CellTiter-Blue; higher = more viable cells (about 100 = DMSO control); settings: 10000 nM; incubation time: 72 h
Respond with the bare value in %.

Here is how some molecules turned out for normalised viability.
O=P(O)(NCCCl)NCCCl [Ifosfamide mustard]	112
COC1=C2C[C@@H](C)C[C@H](OC)[C@H](O)[C@@H](C)/C=C(\C)[C@H](OC(N)=O)[C@@H](OC)/C=C\C=C(/C)C(=O)NC(=CC1=O)C2=O	17.2
c1ccc(C2CN3CCSC3=N2)cc1 (configuration not stated)	107
COC1=CC(c2cc3ccccc3[nH]2)=N/C1=C\c1[nH]c(C)cc1C	22.1
COc1cc(Nc2ncc(F)c(Nc3ccc4c(n3)NC(=O)C(C)(C)O4)n2)cc(OC)c1OC	88.4
C#Cc1cccc(Nc2ncnc3cc(OC)c(OCCCCCCC(=O)NO)cc23)c1	5.55

# input Give the measured normalised viability of O=c1[nH]cc(F)c(=O)[nH]1 .
# output 55.6

###

tested on: CAL-120; experiment: normalised viability (% of control), CellTiter-Blue; higher = more viable cells (about 100 = DMSO control); conditions: 1000 nM; incubation time: 72 h
property: normalised viability (%)
Respond with the bare value in %.

Here is how some molecules turned out for normalised viability.
CCOc1cc2ncc(C#N)c(Nc3ccc(OCc4ccccn4)c(Cl)c3)c2cc1NC(=O)/C=C/CN(C)C	82.7
COc1cccc2c1C(=O)c1c(O)c3c(c(O)c1C2=O)C[C@@](O)(C(C)=O)C[C@@H]3O[C@H]1C[C@H](N)[C@H](O)[C@H](C)O1	9.51
CCS(=O)(=O)c1cccc(-c2cc(C(=O)NC3CCN(C)CC3)c(C)c3[nH]c4ncc(C)cc4c23)c1	13.2
Cn1c(=O)c(F)c(Nc2ccc(I)cc2F)c2c(=O)n(C[C@@H](O)CO)cnc21	56.3
COc1c(C)cnc(Cn2cnc3c(Cl)nc(N)nc32)c1C	18.4

# input Give the measured normalised viability of COc1ncc(-c2ccc3nccc(-c4ccnnc4)c3c2)cc1NS(=O)(=O)c1ccc(F)cc1F .
# output 16.1

# input Give the measured normalised viability of C#Cc1cccc(Nc2ncnc3cc(OC)c(OCCCCCCC(=O)NO)cc23)c1 .
# output 38.3
